Tested on: ACHN renal
Assay: NCI-60 one-dose screen, 48 h
Conditions: 10 µM unless noted
Compounds without any hit were thinned out: in the full panel of roughly 83,000, 20% have a hit. Calls of active or inactive are those of the source. The calls were made as follows: active = growth percent below 10; inactive = the rest.
Respond only with the outcome that fits, drawn from class 1 = active, class 0 = inactive

Observe how each entry below is paired with its result.
> print(dat)
                                   compound  group.label
1  CCCCCN1C=C/C(=C\C(=O)N(C)c2ccc(Oc3ccccc3)cc2)c2ccccc21      class 0
2  CCN1CCN(CCNc2nccc(-c3c(-c4cccc(OC)c4)nc4occn34)n2)S1(=O)=O      class 0
3  O=C1Nc2cc(-c3ccc(NC(=O)c4ccccc4)cc3)ccc2/C1=C/c1ccc[nH]1      class 0

Qu. Recorded test outcome, item Cn1cc(-c2csc(-c3c[nH]c4ccccc34)n2)c2ccnc(Cl)c21
Ans. class 0

Qu. Please share the test call associated with COc1ccc(-c2nc(S(=O)(=O)c3ccccc3)c(S(=O)CC(=O)N3CCC(C)CC3)o2)cc1 (stereo not given) .
Ans. class 1
